Test system: Streptococcus pneumoniae
run description: Bactericidal activity against penicillin-susceptible Streptococcus pneumoniae PU09 incubated for 20 to 24 hrs followed by sub-culturing for 24 hrs in absence of compound
Type: functional
Examples of molecules with documented MBC follow.

Below: 4 molecules and their reported MBC.
{"record smiles": "CC[C@H]1OC(=O)[C@H](C)[C@@H](OC(=O)Cc2ccccn2)[C@H](C)[C@@H](O[C@@H]2O[C@H](C)C[C@H](N(C)C)[C@H]2O)[C@](C)(OC)C[C@@H](C)/C(=N\\OC/C=C/c2cccnc2)[C@H](C)[C@H]2OC(=O)O[C@@]21C", "reported result": "> 64 µg/mL"}
{"record smiles": "CC[C@H]1OC(=O)[C@H](C)[C@H](OC(=O)Cc2ccccn2)[C@H](C)[C@@H](O[C@@H]2O[C@H](C)C[C@H](N(C)C)[C@H]2O)[C@](C)(OC)C[C@@H](C)/C(=N\\OC)[C@H](C)[C@H]2OC(=O)O[C@@]21C", "reported result": "> 64 µg/mL"}
{"record smiles": "CC[C@H]1OC(=O)[C@H](C)[C@H](OC(=O)c2ccccn2)[C@H](C)[C@@H](O[C@@H]2O[C@H](C)C[C@H](N(C)C)[C@H]2O)[C@](C)(OC)C[C@@H](C)/C(=N\\OC)[C@H](C)[C@H]2OC(=O)O[C@@]21C", "reported result": "> 64 µg/mL"}
{"record smiles": "CC[C@H]1OC(=O)[C@@](C)(F)[C@H](OC(=O)Cc2ccccn2)[C@H](C)[C@@H](O[C@@H]2O[C@H](C)C[C@H](N(C)C)[C@H]2O)[C@](C)(OC)C[C@@H](C)/C(=N\\OC)[C@H](C)[C@H]2OC(=O)O[C@@]21C", "reported result": "> 64 µg/mL"}

Switching to the query record.
-- ask For the molecule CC[C@H]1OC(=O)[C@H](C)C(=O)[C@H](C)[C@@H](O[C@@H]2O[C@H](C)C[C@H](N(C)C)[C@H]2O)[C@](C)(OC)C[C@@H](C)C(=O)[C@H](C)[C@H]2N(CCCCn3cnc(-c4cccnc4)c3)C(=O)O[C@]12C , report MBC.
-- reply 0.5 to 1 µg/mL
